Molecular target: human mAChRM1 (Homo sapiens, UniProt P11229)
Construct: host or cells: CHO-K1
Sequence (P11229 1-460): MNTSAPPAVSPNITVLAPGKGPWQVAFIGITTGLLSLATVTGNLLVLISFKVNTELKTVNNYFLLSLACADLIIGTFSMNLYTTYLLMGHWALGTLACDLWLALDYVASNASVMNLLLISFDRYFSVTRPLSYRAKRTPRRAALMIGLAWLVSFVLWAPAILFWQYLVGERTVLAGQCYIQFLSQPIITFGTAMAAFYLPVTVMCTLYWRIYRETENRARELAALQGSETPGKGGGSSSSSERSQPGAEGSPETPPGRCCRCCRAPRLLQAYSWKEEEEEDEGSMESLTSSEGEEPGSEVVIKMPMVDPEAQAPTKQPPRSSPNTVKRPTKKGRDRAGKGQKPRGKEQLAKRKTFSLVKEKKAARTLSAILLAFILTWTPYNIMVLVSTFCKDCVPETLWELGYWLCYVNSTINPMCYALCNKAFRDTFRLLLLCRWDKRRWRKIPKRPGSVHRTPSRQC
Assay: mAChR M1 cell-based functional assay (calcium mobilization), positive allosteric modulator activity: increase in the EC20 acetylcholine response
Conditions: increase in the EC20 acetylcholine response, read-out: PAM Activity Human M1 EC50
Experimental: Chinese hamster ovary (CHO-K1) cells stably expressing rat (r)M1 were purchased from the American Type Culture Collection and cultured according to their indicated protocol. […] Calcium flux was measured using the Functional Drug Screening System (FDSS) 6000 (Hamamatsu Corporation, Tokyo, Japan) as an increase in the fluorescent static ratio. […] Agonist activity was analyzed as a concentration-dependent increase in calcium mobilization upon compound addition. […]
EC50 values for the compounds below.
Numeric only. Scale: nM

Study these solved cases before continuing.
COc1cc(-c2ccc(C(C)(C)O)c3nn(C)cc23)cc(F)c1CN1Cc2ncccc2C1=O	163
CC(C)(O)c1ccc(-c2cc(F)c(CN3Cc4ncccc4C3=O)c(F)c2)cc1Cl	1980
CCC(O)(CC)c1ccc(-c2cc(F)c(CN3Cc4ncccc4C3=O)c(F)c2)c2cn(C)nc12	2290
COc1cc(-c2ccc(C(C)(C)O)c3nn(C)cc23)cc(F)c1CN1Cc2cccnc2C1=O	233
Cn1cc2c(-c3cc(F)c(CN4Cc5ncccc5C4=O)c(F)c3)cc(C(C)(C)O)cc2n1	1920

The record that follows has no EC50 shown yet.
Fill in the blank: the reported EC50 of `CC(C)(O)c1ccc(-c2cc(F)c(CN3Cc4ncccc4C3=O)c(C3CC3)c2)cc1` is ____.
813
